- System: NCI-H226 lung
- Measurement protocol: NCI-60 one-dose screen, 48 h (100 = growth as untreated, 0 = no growth, -100 = all killed)
- Conditions: 10 µM
About 83,000 compounds went through this panel and 20% of them were active in at least one assay; those are over-represented in the sample as a whole.
Parameter: growth (%)
One number for each entry, in %.

Before answering, review these 3 worked examples.
{"Compound": "COc1ccc2c(c1)C(=O)c1c-2c(=O)n(CCCN(C)C)c2cc(OC)c(OC)cc12", "Parameter": "growth", "Unit label": "%", "Meas value": 70.5}
{"Compound": "Cc1ccc(NC(=O)Nc2c(Cl)cccc2Cl)cn1", "Parameter": "growth", "Unit label": "%", "Meas value": 140}
{"Compound": "COc1ccc2c(c1)sc1nc(-c3ccccc3)c(-c3ccc(O)c(OC)c3)n12", "Parameter": "growth", "Unit label": "%", "Meas value": 94.1}

For the 4 compounds below, give their growth values.
1. CC(=O)c1nc2ccccc2n1CCN1CCN(C)CC1
2. FC(F)(F)c1ccc(-c2cnc(-n3cc(COCCN4CCCCC4)nn3)nc2NC2CCCCCC2)cc1
3. COc1ccc(NC(=O)CSc2nc3ccccc3c(=O)n2CCc2ccccc2)cc1
4. ClCCOCCn1cnc2c(Cl)nc(Cl)nc21

1. 90.9
2. 78.7
3. 93.9
4. 74.8
